system: K-562 leukemia; assay: NCI-60 one-dose screen, 48 h; details: 10 µM unless noted
The panel holds about 83,000 compounds, 20% with a hit somewhere; the sample as a whole holds those more often. Activity calls are given as the source filed them. The calls were made as follows: active = growth percent below 10; inactive = the rest.
I would appreciate it if you answered using one of these outcomes: 1 for active, 0 for inactive

{"MOLECULE": "CCN(CC)CCn1c(=O)n(C)c2ccccc21", "CLASS": 0}
{"MOLECULE": "CC1(C)N=C(N)N=C(N)N1c1ccc(CCC(=O)Nc2ccc(S(=O)(=O)F)cc2)cc1", "CLASS": 0}
{"MOLECULE": "O=C(O)C(Br)CBr (stereo unspecified)", "CLASS": 0}
{"MOLECULE": "Oc1ccccc1C=NCCN=Cc1ccccc1O.[Fe]", "CLASS": 0}
{"MOLECULE": "COc1ccc(C(C#N)C(C)=O)cc1 (stereo unspecified)", "CLASS": 0}

Switching to the query record.
How was C[C@@H]1C/C=C\C(=O)O[C@H](/C=C/C#C/C=C/C(C)(C)[C@@H](O)c2cccc(O)c2Br)[C@@H](C)/C=C/[C@H](C)C[C@H](OC(N)=O)C1 classified in this test? 1

###

Reported growth by item:
system: HCT-15 colon; experiment: NCI-60 one-dose screen, 48 h (100 = growth as untreated, 0 = no growth, -100 = all killed); conditions: 10 µM unless noted
About 83,000 compounds went through this panel and 20% of them were active in at least one assay; those are over-represented in the sample as a whole.
Reply numerically in %, unit not repeated.

Answered examples (4):
{"MOLECULE": "ClCc1ccc(Cl)c(Cl)c1", "QUANTITY": "growth", "REPORTED VALUE": 98.6}
{"MOLECULE": "OCCNC1CCCCC1", "QUANTITY": "growth", "REPORTED VALUE": 98.7}
{"MOLECULE": "CNC(=O)CCl", "QUANTITY": "growth", "REPORTED VALUE": 101}
{"MOLECULE": "O=C(NC(Cl)=C(Cl)Cl)P(=O)(c1ccccc1)c1ccccc1", "QUANTITY": "growth", "REPORTED VALUE": 105}

Summary for this molecule, O=C1CCCCC1CN1CCCCC1 (centres undefined) : growth is 99.9

Record COc1cc(-c2ccc(N)c(OC)c2)ccc1N . Reported growth: 110

Notebook: C[C@]12CC[C@H](O)C[C@@H]1CC[C@@H]1[C@@H]2CC[C@]2(C)OC(=O)CC[C@@H]12 , growth read as 95.2

Reported growth for COC[C@H]1OC(=O)c2coc3c2[C@@]1(C)C1=C(C3=O)[C@@H]2CCC(=O)[C@@]2(C)C[C@H]1OC(C)=O was 53.8

Just so you know, measured growth for O=[N+]([O-])c1ccc2scc3c4ccccc4nc-3c2c1 came out at -36.7

###

tested on: MOLT-4 leukemia; test: NCI-60 one-dose screen, 48 h (100 = growth as untreated, 0 = no growth, -100 = all killed); details: 10 µM unless noted
About 83,000 compounds went through this panel and 20% of them were active in at least one assay; those are over-represented in the sample as a whole.
The compounds listed here are annotated with their growth.
Quick reminder: number only, in %, skip the unit.

{"COMPOUND": "Oc1ccccc1C=NCCN=Cc1ccccc1O", "growth [%]": 106}
{"COMPOUND": "O=C1c2ccccc2C(=O)N1N1CC1c1ccccc1 (stereo not drawn)", "growth [%]": 83.5}
{"COMPOUND": "CC(=O)OC1CC2(O)C(CCC3(C)C(c4ccc(=O)oc4)CCC32O)C2(C)CCC(OC3OC(CO)C(O)C(O)C3O)C=C12 (stereo not drawn)", "growth [%]": -19.6}
{"COMPOUND": "COc1cc(-c2ccc(N)c(OC)c2)ccc1N", "growth [%]": 173}
{"COMPOUND": "O=S1(=O)OCCO1", "growth [%]": 114}

Kindly note the recorded growth for c1ccc2c(c1)O[As](O[As]1Oc3ccccc3O1)O2 , which is 19.2

growth reported for this compound CCC(=O)C(CC(C)N1CCCCCC1)(c1ccccc1)c1ccccc1 (stereo not drawn) : 93.9

Looking up COc1ccc(N(CC(=O)NCCC[Te]c2ccccc2)C(=O)c2ccccc2)cc1 , I see its growth listed as 17.9

###

system: OVCAR-8 ovarian; experiment: NCI-60 one-dose screen, 48 h (100 = growth as untreated, 0 = no growth, -100 = all killed); conditions: 10 µM unless noted
Compounds without any hit were thinned out: in the full panel of roughly 83,000, 20% have a hit. Activity calls are given as the source filed them. How the source made its calls: active means growth percent below 10; inactive means the rest.
QUANTITY: growth

{"COMPOUND": "CCN1C(=O)CC(=O)N(CC)C1=S", "QUANTITY": "growth", "REPORTED VALUE": "109% (inactive)"}
{"COMPOUND": "C[N+]1(CC#CC[N+]2(C)CCCC2)CCCC1", "QUANTITY": "growth", "REPORTED VALUE": "111% (inactive)"}

The compound identified as CC[C@H](C)[C@H](NC(=O)[C@H]1CCCCN1C)C(=O)N(C)[C@H](C(=O)NC12CC(C(=O)N[C@@H](Cc3ccccc3)C[C@H](C)C(=O)OC)(C1)C2)C(C)C registered its growth at 96.8% (inactive)

Sample N#CCCc1ccccc1 ; growth observed: 107% (inactive)

Summary for this compound, O=NN1CCCCC1 : growth is 111% (inactive)

CN1CCC2(CC1)C(C#N)C(=O)NC(=O)C2C#N (configuration not stated) has a reported growth of 99% (inactive)

Lab note: c1ccc2c(c1)sc1ccccc12 gave growth of 101% (inactive)

Memo: COc1ccc2c(c1)c(-c1nc(-c3cn(C)c4ncccc34)cs1)cn2CCCCN1CCOCC1 , reported growth: 48.5% (inactive)

The recorded growth for Cc1ccc(N2CCN(CCC#N)CC2)cc1 is 97.3% (inactive)

Reported growth of COc1ccc(C(C#N)C(C)=O)cc1 (configuration not stated) : 95.5% (inactive)

Note to self: growth recorded for Oc1cc(N2CC2)c(O)cc1N1CC1 was 11.2% (inactive)

Lab note: measured growth of O=C=Nc1ccc(Br)cc1 was 107% (inactive)

Value of growth reported for the compound O=C(CBr)OCCOC(=O)CBr is 93.7% (inactive)

Record Cc1cc(C(C)(C)C)ccc1O . Reported growth: 102% (inactive)

Input CNC(=O)O/N=C(\SC)C(=O)N(C)C . Output growth: 97.7% (inactive)

Form: compound = CC[C@H](C)[C@H](NC(=O)CN(C)C)C(=O)N(C)[C@H](C[C@@H](OC(C)=O)c1nc(C(=O)NC23C4C5C2C2C3C4C52C(=O)OC)cs1)C(C)C (some centres not stated) ; growth = 21.6% (inactive)

// sample CCOC(=O)P(=O)(OCC)OCC , its growth was 101% (inactive)

###

Listing: growth of selected molecules
System: MCF7 breast
Assay: NCI-60 one-dose screen, 48 h (100 = growth as untreated, 0 = no growth, -100 = all killed)
Settings: 10 µM unless noted
Description: Growth inhibition of the MCF7 human tumor cell line is measured as a screen for anti-cancer activity. Cells are grown in 96 well plates and exposed to the test compound for 48 hours. Compounds are tested at a single concentration, which is 10^-5 M for most compounds. The reported endpoint is percent growth (GI% or GIPRCNT), where numbers from 0 - 100% represent growth inhibition, and numbers from -100% - 0 represent cell death. For example, a value of 40 represents 60% growth inhibition. […]
The panel holds about 83,000 compounds, 20% with a hit somewhere; the sample as a whole holds those more often.
Value expressed in %; do not type the unit.

{"MOLECULE": "CC1=C([Te]c2ccccc2)C(=O)c2ccccc2C1=O", "MEASUREMENT TARGET": "MCF7 breast", "growth (%)": -77.3}

Noted for O=S(=O)(c1ccc(O)cc1)c1ccccc1O : its growth reads 104

###

tested on: A549/ATCC NSCLC; assay: NCI-60 one-dose screen, 48 h (100 = growth as untreated, 0 = no growth, -100 = all killed); conditions: 10 µM unless noted
Compounds without any hit were thinned out: in the full panel of roughly 83,000, 20% have a hit.
QUANTITY: growth (%)
Please state the figure in %; there is no need to write the unit.

{"COMPOUND": "O=C1CCCCC1CN1CCCCC1 (stereo unspecified)", "UNIT": "%", "growth": 94.9}

Entry Cc1cc2c(cc1-c1ccnc(/C=C/C(=O)O)c1)C(C)(C)CCC2(C)C , growth reported as 77.1

growth reading for CCC(=O)C(CC(C)[N+](C)(C)C)(c1ccccc1)c1ccccc1 (stereo unspecified) : 95.8

The recorded growth for COc1c(O)cc2c(c1OC)-c1ccc(SC)c(=O)cc1C(NC(C)=O)CC2 (stereo unspecified) is 46.4

According to the records, this compound O=[P+](O)c1cccnc1 displays growth of 101

Record NC(=O)Oc1cc(OC(N)=O)cc(N(CCCl)CCCl)c1 . Reported growth: 50.6
